Each entry below carries its recorded solubility.
PROTOCOL SUMMARY: Solubility was measured in D2O using 1H NMR integration of the C-20 ethyl group against internal standard 1,4-dioxane
Format: physicochemical

For orientation, consider the following solved cases.
Q: Fill blank: measured solubility of the molecule "CC[C@@]1(O)C(=O)OCc2c1cc1n(c2=O)Cc2c-1nc1cc3c(cc1c2C[n+]1ccccc1)OCO3" is ____.
A: > 4500 µg/mL

Q: Fill blank: measured solubility of the molecule "CC[C@@]1(O)C(=O)OCc2c1cc1n(c2=O)Cc2c-1nc1cc3c(cc1c2Cn1ccnc1)OCCO3" is ____.
A: < 500 µg/mL

Q: Fill blank: measured solubility of the molecule "CC[C@@]1(O)C(=O)OCc2c1cc1n(c2=O)Cc2c-1nc1cc3c(cc1c2Cn1cc[n+](C)c1)OCO3" is ____.
A: > 3500 µg/mL

Q: Fill blank: measured solubility of the molecule "COc1cccc2c1C(=O)c1c(O)c3c(c(O)c1C2=O)C[C@@](O)(C(=O)CO)C[C@@H]3O[C@H]1C[C@H](N)[C@H](O)[C@H](C)O1" is ____.
A: > 2000 µg/mL

Q: Fill blank: measured solubility of the molecule "CC[C@@]1(O)C(=O)OCc2c1cc1n(c2=O)Cc2c-1nc1cc3c(cc1c2C[n+]1ccccn1)OCO3" is ____.
A: > 3100 µg/mL

New cases:
Q: Fill blank: measured solubility of the molecule "CC[C@@]1(O)C(=O)OCc2c1cc1n(c2=O)Cc2c-1nc1cc3c(cc1c2C[n+]1cccc(CO)c1)OCO3" is ____.
A: > 4400 µg/mL

Q: Fill blank: measured solubility of the molecule "CC[C@@]1(O)C(=O)OCc2c1cc1n(c2=O)Cc2c-1nc1cc3c(cc1c2Cn1ccnc1)OCO3" is ____.
A: < 500 µg/mL
